target: GDP-bound KRAS protein (aa 1-169), containing both G12D and C118A amino acid substitutions (Homo sapiens, UniProt P01116, C118A/G12D); test: KRAS G12D Coupled Nucleotide Exchange Assay; format: biochemical; details: 2 h compound pre-incubation
Sequence (P01116 1-169 isoform P01116-2 G12D/C118A): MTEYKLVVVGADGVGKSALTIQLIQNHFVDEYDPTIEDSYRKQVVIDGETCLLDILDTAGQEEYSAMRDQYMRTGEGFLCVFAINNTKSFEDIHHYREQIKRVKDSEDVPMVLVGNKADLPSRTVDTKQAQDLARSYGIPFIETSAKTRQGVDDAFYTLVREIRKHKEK
value-type: Avg 2 h Coupled Exchange IC50

                      smiles_representation                     value_type  reported
0  CCc1c(F)ccc2cc(O)cc(-c3cc4nc(OC[C@@]56CCCN5C[C@H](F)C6)nc(N5C[C@@H]6CC[C@H]5CN6)c4cc3F)c12  Avg 2 h Coupled Exchange IC50      5 nM
1  Cc1c(-c2cc(O)cc3ccc(F)c(F)c23)ccc2c(N3C[C@@H]4CC[C@H]3CN4)nc(OC[C@@]34CCCN3C[C@H](F)C4)nc12  Avg 2 h Coupled Exchange IC50     82 nM
2  Cc1cccc(-c2c(F)cc3c(N4C[C@H]5CC[C@@H](C4)N5)nc(OC[C@@]45CCCN4C[C@H](F)C5)nc3c2F)c1C(F)(F)F  Avg 2 h Coupled Exchange IC50      2 nM

====

Below: a set of entries, each annotated with reported Avg 2 h Coupled Exchange IC50.
target: GDP-bound KRAS protein (aa 1-169), containing both G12D and C118A amino acid substitutions (Homo sapiens, UniProt P01116, C118A/G12D); test: KRAS G12D Coupled Nucleotide Exchange Assay; assay type: biochemical; settings: 2 h compound pre-incubation
value-type: Avg 2 h Coupled Exchange IC50 (nM)

>>> print(df.to_string())
                       smiles_representation                     value_type  reported
 0  C#Cc1cccc2cc(O)cc(-c3c(F)cc4c(N5C[C@H]6C[C@@H](C5)N6)nc(OC[C@@]56CCCN5C[C@H](F)C6)nc4c3F)c12  Avg 2 h Coupled Exchange IC50         4
 1  Oc1cc(-c2ccc3c(N4[C@@H]5CC[C@H]4CNC5)nc(OC[C@@]45CCCN4C[C@H](F)C5)nc3c2F)c2cnccc2c1  Avg 2 h Coupled Exchange IC50       259
 2  Oc1cc(-c2c(F)cc3c(N4C[C@H]5C[C@@H](C4)N5)nc(OC[C@@]45CCCN4C[C@H](F)C5)nc3c2F)c2ccccc2c1  Avg 2 h Coupled Exchange IC50         6
 3  Oc1cc(-c2ccc3c(N4C[C@@H]5CC[C@H]4CN5)nc(OC[C@@]45CCCN4C[C@H](F)C5)nc3c2F)c2ccccc2c1  Avg 2 h Coupled Exchange IC50         2
 4  Cc1c(Cl)cc2cn[nH]c2c1-c1ccc2c(N3C[C@H]4CC[C@@H](C3)N4)nc(OC[C@@]34CCCN3C[C@H](F)C4)nc2c1F  Avg 2 h Coupled Exchange IC50        11
 5  CCc1c(F)ccc2cc(O)cc(-c3c(F)cc4c(N5C[C@H]6CC[C@@H](C5)N6)nc(OCC(C)(C)O)nc4c3F)c12  Avg 2 h Coupled Exchange IC50         8
 6  CCc1c(F)ccc2cc(O)cc(-c3c(F)cc4c(N5[C@@H]6CNC[C@H]5COC6)nc(OC[C@@]56CCCN5C[C@H](F)C6)nc4c3F)c12  Avg 2 h Coupled Exchange IC50         3
 7  Cc1c(-c2cc(O)cc3ccccc23)ccc2c(N3C[C@H]4CC[C@@H](C3)N4)nc(OC[C@@]34CCCN3C[C@H](F)C4)nc12  Avg 2 h Coupled Exchange IC50         3
 8  CN1C[C@H](F)C[C@H]1COc1nc(N2C[C@H]3C[C@@H](C2)N3)c2cc(F)c(-c3cc(O)cc4ccccc34)c(F)c2n1  Avg 2 h Coupled Exchange IC50        28
 9  CCc1c(F)ccc2cc(O)cc(-c3c(F)cc4c(N5C[C@H]6CC[C@@H](C5)N6)nc(OC[C@@H]5CC(F)(F)CN5)nc4c3F)c12  Avg 2 h Coupled Exchange IC50         4
10  C#Cc1cccc2cc(O)cc(-c3ccc4c(N5[C@@H]6CC[C@H]5CNC6)nc(OC[C@@]56CCCN5C[C@H](F)C6)nc4c3F)c12  Avg 2 h Coupled Exchange IC50         3
11  N#Cc1cccc2cccc(-c3c(F)cc4c(N5C[C@H]6CC[C@@H](C5)N6)nc(OC[C@@]56CCCN5C[C@H](F)C6)nc4c3F)c12  Avg 2 h Coupled Exchange IC50         4
